# System: UACC-62
# assayNotes: NCI tumour cell line growth inhibition, 48 h
The source made the active and inactive calls. Rule as the data show it: active = GI50 up to about 1.1 µM and inactive = higher.
Labels: TRUE (active), FALSE (inactive)

1. NS(=O)(=O)c1ccc(NC(=O)c2ccc3nc4ccccc4c(Nc4ccc(S(N)(=O)=O)cc4)c3c2)cc1; FALSE
2. COc1cc2c(c(OC)c1OC)-c1ccc(OC)c(=O)cc1C(NC(=O)c1ccc(N=[N+]=[N-])cc1)CC2 (stereo not given); TRUE
3. CCCC[S+]([O-])CC(CO)NC(=O)/C=C/c1c(C)[nH]c(=O)[nH]c1=O (stereo not given); FALSE
4. CCOc1ccc(/N=N/C2C(=O)N(C(=O)CC(=O)Nc3ccccc3)N=C2C)cc1 (stereo not given); FALSE
5. COCCn1cnc2c(Cl)nc(Nc3ccccc3)nc21; FALSE
6. O=C1CC(c2ccc(Cl)cc2)C2(C(=O)NC(=O)NC2=O)C(c2ccc(Cl)cc2)C1 (stereo not given); FALSE
7. O=CC12C3CCC1C2C(=O)C3 (stereo not given); FALSE
8. COc1ccc(/C=c2/sc3n(c2=O)NC(c2ccc(Cl)cc2)NN=3)cc1 (stereo not given); FALSE
9. O=C(CC1=Nc2nnc(CCCCCCCc3nnc4n3C(=O)C(CC(=O)c3ccccc3)=N4)n2C1=O)c1ccccc1; FALSE
10. O=C(O)CCC(=O)c1ccc2ccc3cccc4ccc1c2c34; FALSE

* * *

# System: HCT-116
# assayNotes: NCI tumour cell line growth inhibition, 48 h
Active and inactive are the calls of the source. Cut-off read from the data, not from the text of the source: active = GI50 up to about 1.1 µM and inactive = higher.
Labels: True (active), False (inactive)

1. O=C1OC(c2ccccc2)=N/C1=C\c1ccc2ccccc2c1; False
2. Nc1ccc2cc3ccc(N)cc3nc2c1; True
3. CCOC(=O)C(C)(C(=O)OCC)/C(Cl)=C\Cl; False
4. O=c1oc2c/c(=C\c3ccccn3)c(=O)c3cccc1c3-2; False
5. COC1/C(=C\C(=O)OC(C)(C)C)c2ccccc2N1C(C)=O (stereo not given); False
6. COc1cc(C2c3cc4c(cc3[C@@H](Nc3ccc(Oc5ccccc5)cc3)C3COC(=O)[C@H]23)OCO4)cc(OC)c1O (stereo not given in full); True
7. O=C(O)C1C2C=CC(O2)C1C(=O)NCc1cccnc1 (stereo not given); False
8. CC1CC[C@@]2(OC1)OC1C[C@H]3[C@@H]4CC=C5C[C@@H](OC6OC(CO)C(OC7OC(CO)C(O)C(O)C7O)C(O)C6OC6OC(C)C(O)C(O)C6O)CC[C@]5(C)[C@H]4CC[C@]3(C)C1[C@@H]2C (stereo not given in full); True
9. COc1ccc(NC2=NCCO2)c2c1CCCC2; False
10. CC(/C=C/c1ccccc1)=N\NC(N)=S; False

* * *

# Test system: SN12C
# assayNotes: NCI tumour cell line growth inhibition, 48 h
The source made the active and inactive calls. No stated cut-off is given here; in the data, active = GI50 up to about 1.1 µM and inactive = higher.
Labels: yes (1) for active, no (0) for inactive

1. Cc1cc(N(CCC#N)S(=O)(=O)c2ccccc2)ccc1/C=C1\N=C(c2ccc(Cl)cc2)OC1=O; no (0)
2. C=C1CC2[C@H](C)C(=O)CCC2(C)C2=C1C1CCC(C(C)CCC(=C)C(C)C(=O)O)C1(C)CC2=O (stereo partly specified); no (0)
3. CNC(=O)OCC1=C(COC(=O)NC)CN(c2ccc(OC)cc2)C1; no (0)
4. COc1ccc(CNC2=N/C(=C\c3ccccc3Cl)C(=O)N2C)cc1; no (0)
5. CN/C(=N\N)NS(=O)(=O)c1cc(C)c(Cl)cc1S; no (0)
6. N=C(N)c1ccc(OCCCCCOc2ccc(C(=N)N)cc2)cc1; no (0)
7. CCOC(=O)C(O)(NC(=O)c1ccccc1F)C(F)(F)F (stereo unspecified); no (0)
8. CSc1nc(NC2OC(COC(C)=O)C(OC(C)=O)C(OC(C)=O)C2OC(C)=O)c(-c2csc(N)n2)c(=O)n1C (stereo unspecified); no (0)
9. C/C(=N\Nc1nc2cccnc2s1)c1ccccn1; yes (1)
10. CCOC(=O)C1=CN(Cc2ccccc2)C2ON=C(c3ccc(Cl)cc3)C2C1 (stereo unspecified); no (0)
11. COc1ccc2c(C)cc(N/N=C(\C)C=O)nc2c1; no (0)
12. COc1ccc(OC)c([N+](=O)[O-])c1-c1nc2sc(C)c(C)n2c1/C=N/N=C(N)N; no (0)
13. O=C(O)c1oc2cccc3c2c1CCC3; no (0)
14. CC(=O)OCC1OC(Nc2ccc3nc(C)n(-c4cccc(C)c4)c(=O)c3c2)C(OC(C)=O)C(OC(C)=O)C1OC(C)=O (stereo unspecified); no (0)
15. CC(C)=CCC/C(=C\CC/C(=C\CCc1ccoc1)C(=O)O)C(=O)O; no (0)
16. CC(=O)NC(Cc1ccccc1)C(=S)N1CCCC1 (stereo unspecified); no (0)
17. N#C[C@H]1C(=O)C(c2nc3ccccc3[nH]2)S[C@H]1c1ccccc1 (stereo partly specified); no (0)
18. COc1ccc(C(=O)C2CC3(CCC2(O)c2ccc(OC)cc2)CC(=O)Nc2ccccc2C3=O)cc1 (stereo unspecified); no (0)
19. N#Cc1c(-c2ccc([N+](=O)[O-])cc2)c(C#N)c(=O)n(NS(=O)(=O)c2ccccc2)c1-c1ccccc1; no (0)
20. O=C(Cc1ccccc1CCO)NCCc1ccccc1; no (0)
21. CSc1nc(NC2OCC(OC(C)=O)C(OC(C)=O)C2OC(C)=O)c(/N=C(\C)C(C)=O)c(=O)[nH]1 (stereo unspecified); no (0)
22. Cc1cc(N(C)c2ccccc2)nc(N(C)c2ccccc2)n1; no (0)
23. NCCCCN(CCCN)/[N+]([O-])=N\O; no (0)
24. COc1ccc(OC)c2[s+]snc12; no (0)
25. S=C(S)N1CCN(c2cccc(Cl)c2)CC1; no (0)
26. CN(O)C(=O)Cc1ccccc1; no (0)
27. COc1ccc(C2CC(=O)c3c(O)cc(O)cc3O2)cc1O (stereo unspecified); no (0)
28. CC(C)(C)c1ccc2c(c1)C(O)(c1ccccc1)c1cc(C(C)(C)C)ccc1C2(O)C(F)(F)F (stereo unspecified); no (0)
29. Nc1ncnc2c1ncn2C1CC(OCc2ccccc2[N+](=O)[O-])C(CO)O1 (stereo unspecified); no (0)
30. COc1cc(/N=N\c2cccc(S(=O)(=O)O)c2)ccc1/N=N\c1ccc(/C=C/c2ccc(-n3on3-c3ccc(/C=C/c4ccc(/N=N/c5ccc(/N=N\c6cccc(S(=O)(=O)O)c6)cc5OC)cc4S(=O)(=O)O)c(S(=O)(=O)O)c3)cc2S(=O)(=O)O)c(S(=O)(=O)O)c1; no (0)
31. O=C(O)C(Cc1ccccc1)NCc1c(O)ccc2c(-c3ccccc3)cc(=O)oc12 (stereo unspecified); no (0)
32. CC[C@@]1(O)C(=O)OCc2c1cc1n(c2=O)Cc2c-1nc1ccccc1c2/C=N/NC(=O)C[N+](C)(C)C; yes (1)
33. COc1cc(CCN)c(OC)c(OC)c1; no (0)
34. S=C(N/N=C(/c1ccccc1)c1ccccn1)N(Cc1ccccn1)Cc1ccccn1; yes (1)
35. Cc1cccc(C)c1NC(=O)/C(CC(=O)CC(c1ccccc1)c1c(O)c2ccccc2oc1=O)=N/O (stereo unspecified); no (0)
36. CCOC(=O)/C=C(/C(=O)OCC)n1cc(Cl)c(=O)n(CC(=O)OCC)c1=O; no (0)
37. CSc1nnc2n1-c1ccccc1SCC2; no (0)
38. NC(=O)c1cccc(OCC(O)CO)c1 (stereo unspecified); no (0)
39. Cc1ccc(C)c(NC(=O)CCC(=O)CC(=O)C(C)(C)C)c1; no (0)
40. Cc1cc(N(CCC#N)CCC#N)ccc1/C=C1\N=C(c2cc([N+](=O)[O-])ccc2Cl)N(c2cccc(Cl)c2)C1=O; no (0)
41. CCCCOC1CC2(c3ccc(OC)cc3)C(=O)c3ccccc3N2O1 (stereo unspecified); no (0)

* * *

# Test system: Malme-3M
# assayNotes: NCI tumour cell line growth inhibition, 48 h
Active and inactive are the calls of the source. Cut-off read from the data, not from the text of the source: active = GI50 up to about 1.1 µM and inactive = higher.
Labels: 1 (active), 0 (inactive)

1. COc1cc(CCN)c(OC)c(OC)c1; 0
2. Cc1n[nH]c(=O)n1Nc1ccccc1; 0
3. Cc1ccc(-c2cc[n+]3c(n2)oc2ccccc23)cc1; 0
4. CC(=O)NC(Cc1ccccc1)C(=S)N1CCCC1 (stereo unspecified); 0
5. NCCCC1NC(=O)/C(=C(O)/C=C/C2CCC[C@@H]2CC2SCCS2)C1=O (stereo partly specified); 0
6. COS(=O)c1cc(Cl)cc(Cl)c1O (stereo unspecified); 0
7. COc1nc(/C=N/NC(N)=S)nc(OC)n1; 0
8. CC(C)(C)c1ccc2c(c1)C(O)(c1ccccc1)c1cc(C(C)(C)C)ccc1C2(O)C(F)(F)F (stereo unspecified); 0
9. CSc1nc(NC2OCC(OC(C)=O)C(OC(C)=O)C2OC(C)=O)c(/N=C(\C)C(C)=O)c(=O)[nH]1 (stereo unspecified); 0
10. CCOC(=O)c1nc(C)oc1C(F)(F)F; 0
11. COP(=O)(OC)C1=c2c(C)noc2=C2C=COC2C1=O (stereo unspecified); 0
12. O=C(O)C(Cc1ccccc1)NCc1c(O)ccc2c(-c3ccccc3)cc(=O)oc12 (stereo unspecified); 0
13. O=C(O)C1C2C=CC(O2)C1C(=O)NCc1cccnc1 (stereo unspecified); 0
14. O=C(c1ccccn1)c1nc(-c2ccc(Cl)c(Cl)c2)nc2ccc(Cl)cc12; 0
15. c1ccc2c(CNCCCCCCCCNCc3cccc4ccccc34)cccc2c1; 0
16. Oc1ccccc1/C=N/c1ccc(-c2nc3ccccc3[nH]2)cc1; 0
17. O=Nn1c2ccccc2c2cc([N+](=O)[O-])ccc21; 0
18. COc1ccc(NC2=NCCO2)c2c1CCCC2; 0
19. N/C(=N\O)N/N=C\c1ccc(O)c(O)c1O; 0
20. COc1cc2c(c(OC)c1)C1(CC(CC#N)C2)SCCS1 (stereo unspecified); 0
21. C=CCN1/C(=C2\SC(=S)N(c3ccc(C)cc3)C2=O)Sc2c1nc[nH]c2=O; 0
22. COc1ccc2c(c1)CCc1[nH]c3ccccc3c1CCCC2; 0
23. C[C@H]1CC[C@H]([C@@H](C)[C@H]2[C@@H](O)C[C@H]3[C@@H]4CC[C@H]5C[C@@H](O)CC[C@]5(C)[C@H]4CC[C@]23C)NC1; 0
24. Cc1ccc(/N=N/c2c(C)c(C#N)c(=S)n(C3OC(CO)C(O)C(O)C3O)c2-c2ccccc2)cc1 (stereo unspecified); 0
25. COC(=O)Cc1cc(O)c2c(c1O)C(=O)c1ccccc1C2=O; 0
26. COC(=O)CSc1ccccc1; 0
27. Nc1ccn([C@@H]2C[C@H](CO)[C@@H](O)[C@H]2O)c(=O)n1; 0
28. O=C(O)c1[nH]c(C(=O)O)c(CC(F)(F)C(F)(F)C(F)(F)F)c1CC(F)(F)C(F)(F)C(F)(F)F; 0
29. CC(C)(C)C1=CC(=C2C=Cc3ccccc3O2)C=C(C(C)(C)C)C1=O; 0
30. Cc1cccc(C)c1NC(=O)C(Cc1c[nH]c2ccccc12)NC(=O)OCc1ccccc1 (stereo unspecified); 0
31. CC(=O)c1c2c(cc3c1CC1(C3)Cc3ccc4c(c3C1=O)CCC4)CCC2 (stereo unspecified); 0
32. Cc1ccc(O)c(-c2cscn2)c1; 0
33. CCSc1n/c(=C\c2ccc(N(C)C)cc2)c2nnnn12; 0
34. CC(C)OP(=S)(NC(=S)c1ccccc1)OC(C)C; 0
35. COc1ccc(NCc2cc(OC)c(OC)c(OC)c2)cc1; 1
36. N=C1C(=N)c2ccccc2-c2ccccc21; 0
37. COc1cc2c(cc1OC)C(C(=O)c1cccc(OC)c1OC)C(=O)N(C)CC2 (stereo unspecified); 0
38. N#CC(c1ccccc1)N(CCc1ccccc1)C(=O)Oc1ccccc1 (stereo unspecified); 0
39. C=C1CCCCCCCCCCC1[S+]([O-])c1ccccc1 (stereo unspecified); 0
40. CC12CC3OC(=O)C1COC14OC5(C2C1=O)C(O)(CCC1C4CC(O)C2(O)CC=CC(=O)C12C)C(=O)OC35C (stereo unspecified); 0
41. Cc1nc(-c2nc(C)c(C(=O)NNC(=O)C[n+]3ccccc3)s2)sc1C(=O)NNC(=O)C[n+]1ccccc1; 0
